Target: SCRIB_2, Q14160
Sequence (Q14160 857-960): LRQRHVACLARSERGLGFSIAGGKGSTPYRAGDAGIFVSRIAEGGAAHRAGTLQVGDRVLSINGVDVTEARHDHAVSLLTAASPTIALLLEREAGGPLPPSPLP
Assay: holdup assay
Set-up: key: below the threshold = too weak to quantify, mostly under pKd 3.1 to 4
Conditions: plain residues with an end cap or a label only (N-terminal biotin on a linker: ado-ado)
Reported pKd is given for each of the following binders.

| binder | pKd |
| --- | --- |
| VYEVPVETKF [SLC26A3, P40879] | 3.67 |
| IGHEDLETAV [DGKI, O75912] | 4.83 |
| HLSTRQGTCV [ATRNL1, Q5VV63] | 4.02 |
